targetOfAssay: Dual specificity tyrosine-phosphorylation-regulated kinase 1A (Rattus norvegicus, UniProt Q63470)
Type: biochemical, Homo sapiens
Active and inactive are the calls of the source.
Task for the reader: assign each of the following compounds its reported AC50.

Query: If you can, please state the reported AC50 value of Oc1ccc(NC(=S)N=Nc2c(O)[nH]c3ccc(Br)cc23)cc1 .
Result: 1200 nM (active)

Query: If you can, please state the reported AC50 value of COc1cc(O)cc2cc3c(c(O)c12)C(=O)CC(C)(O)O3 (centres undefined) .
Result: 2920 nM (active)

Query: If you can, please state the reported AC50 value of CCOC(=O)CSC1=NC(=O)/C(=C\c2ccc(OC(C)=O)cc2)S1 .
Result: 216 nM (active)

Query: If you can, please state the reported AC50 value of N=C1NC(=O)/C(=C/c2ccc(-c3ccc(S(N)(=O)=O)cc3)o2)S1 .
Result: 1970 nM (active)
